Listed below are compounds with IC50 for RON (Homo sapiens), each taken from published literature.

COMPOUND: O=C(Nc1ccc([N+](=O)[O-])cc1)Nc1ccc(Oc2ccnc3c2CNC(=O)N3)c(F)c1
IC50: 10 to 100 nM
--
COMPOUND: CN1CCN(C(=O)c2ccc(-c3cnc(N)c(-c4nc5ccccc5s4)c3)cc2)CC1
IC50: 1000 to 20000 nM
--
COMPOUND: Nc1ncc(-c2cnn(CC(=O)N3CCCCC3)c2)cc1-c1nc2ccccc2s1
IC50: 1000 to 20000 nM
--
COMPOUND: CC(C)(C)OC(=O)NCC#Cc1cnc(N)c(-c2nc3ccccc3s2)c1
IC50: > 20000 nM
--
COMPOUND: Nc1ncc(-c2cnn(C3CCN(CC(=O)N4CCC(O)CC4)CC3)c2)cc1-c1nc2ccccc2s1
IC50: 100 to 1000 nM
--
COMPOUND: Cc1ccc(Nc2ccnc3c2CNC(=O)N3)cc1Br
IC50: 100 to 1000 nM
--
COMPOUND: CN1CCCN(C(=O)c2cccc(-c3cnc(N)c(-c4nc5ccccc5s4)c3)c2)CC1
IC50: 1000 to 20000 nM
--
COMPOUND: CC(Oc1ccc2nc(NC(=O)NCCN3CCOCC3)sc2c1)c1cc(F)cc(F)c1 (centres unmarked)
IC50: 500 to 10000 nM

###

The following molecules were reported with IC50 values on RON (Homo sapiens, UniProt Q04912) in different studies.
ENDPOINT LABEL: IC50

MOLECULE: CCOC(=O)COc1ccc(-c2cnc(N)c(-c3nc4ccccc4s3)c2)cc1
OBSERVED VALUE: 1000 to 20000 nM
--
MOLECULE: CC(Oc1ccc2nc(NC(=O)NCCCn3cccc3)sc2c1)c1c(Cl)ccc(F)c1Cl (centres unmarked)
OBSERVED VALUE: 500 to 10000 nM
--
MOLECULE: Nc1ncc(-c2ccc(OCC(=O)NCc3ccccc3)cc2)cc1-c1nc2ccccc2s1
OBSERVED VALUE: 1000 to 20000 nM
--
MOLECULE: Nc1ncc(-c2cnn(C3CCNCC3)c2)cc1-c1nc2ccc(F)cc2s1
OBSERVED VALUE: 100 to 1000 nM
--
MOLECULE: CC(Oc1ccc2nc(NC(=O)NCCCN3CCCCC3)sc2c1)c1c(Cl)ccc(F)c1Cl (centres unmarked)
OBSERVED VALUE: 500 to 10000 nM
--
MOLECULE: Nc1ncc(-c2cccc(O)c2)cc1-c1nc2ccccc2s1
OBSERVED VALUE: > 20000 nM
--
MOLECULE: COc1cccc(S(=O)(=O)Nc2ccc(Oc3ccnc4c3CNC(=O)N4)c(F)c2)c1
OBSERVED VALUE: 100 to 1000 nM
--
MOLECULE: O=C1NCc2c(Oc3ccc(NC(=O)c4cccn(-c5ccc(F)cc5)c4=O)nc3)ccnc2N1
OBSERVED VALUE: 100 to 1000 nM
--
MOLECULE: Cc1c(C(=O)Nc2ccc(Oc3ccnc4c3C3OCCCN3C(=O)N4)c(F)c2)c(=O)n(-c2ccccc2)n1CC(C)(C)O (centres unmarked)
OBSERVED VALUE: 100 to 1000 nM
--
MOLECULE: CN(C)C(=O)NCC#Cc1cnc(N)c(-c2nc3ccccc3s2)c1
OBSERVED VALUE: 1000 to 20000 nM
--
MOLECULE: Nc1ncc(-c2cccc(C(=O)NCCCN3CCCC3)c2)cc1-c1nc2ccccc2s1
OBSERVED VALUE: 1000 to 20000 nM
--
MOLECULE: CC(Oc1ccc2nc(NC(=O)NCCN3CCN(C)CC3)sc2c1)c1c(F)ccc(Cl)c1Cl (centres unmarked)
OBSERVED VALUE: < 500 nM
--
MOLECULE: Nc1ncc(-c2cnn(C3CCNCC3)c2)cc1-c1nc2c(C(F)(F)F)c(F)ccc2s1
OBSERVED VALUE: 100 to 1000 nM
--
MOLECULE: COc1ccc(Cl)c2cc(-c3cc(-c4cccc(C(=O)O)c4)cnc3N)ncc12
OBSERVED VALUE: > 20000 nM
--
MOLECULE: CN(C)CCCOc1ccc(-c2cnc(N)c(-c3nc4ccccc4s3)c2)cn1
OBSERVED VALUE: 1000 to 20000 nM
--
MOLECULE: CC(Oc1ccc2nc(NC(=O)NCCN3CCCCCC3)sc2c1)c1c(Cl)ccc(F)c1Cl (centres unmarked)
OBSERVED VALUE: 500 to 10000 nM
--
MOLECULE: Nc1ncc(-c2cccc(C(=O)N3CCC(N4CCCC4)CC3)c2)cc1-c1nc2ccccc2s1
OBSERVED VALUE: 1000 to 20000 nM
